Task for the reader: assign each of the following molecules its reported GI50.
Tested on: NCI-H460
Assay: NCI tumour cell line growth inhibition, 48 h
Activity calls are given as the source filed them. Rule as the data show it: active = GI50 up to about 1.1 µM and inactive = higher.

Hello, I would appreciate it if you could give GI50 for each entry below.
1. Cc1cc(-c2no[n+]([O-])c2-c2cc(C)sc2S(C)(=O)=O)c(S(C)(=O)=O)s1
2. COC(=O)Cc1cccc2c(=O)c(S(=O)(=O)NC(=O)Nc3ccc(Cl)cc3)c(-c3ccccc3)oc12
3. Cn1c2ccccc2c(=NNc2cccc(C(=O)O)c2)c2ccccc21
4. CP(=O)(CCSc1ccccc1)c1ccccc1 (centres undefined)
5. Nc1ccn(C2C=C(CO)C(O)C2O)c(=O)c1 (centres undefined)
6. Cc1ccc(C)n1-c1ccccc1C1C=Cn2c(=O)oc3c(OC(C)C)c(OC(C)C)c(O)c1c32 (centres undefined)
7. CC(C)OC(=O)c1cc(NC(=O)C(C)(C)C)c(F)cc1Cl

Output:
1. > 100 µM (inactive)
2. 32.7 µM (inactive)
3. 4.86 µM (inactive)
4. > 100 µM (inactive)
5. > 625 µM (inactive)
6. 22.3 µM (inactive)
7. > 100 µM (inactive)

Hello, I would appreciate it if you could give GI50 for each entry below.
1. N=C(N)NS(=O)(=O)c1ccc(NNc2c3ccccc3nc3c(C(=O)Nc4ccc(S(N)(=O)=O)cc4)cccc23)cc1
2. O=C1/C(=C/c2ccc(Br)s2)NC(=S)N1CN1CCCCC1

Output:
1. 19.7 µM (inactive)
2. 36.1 µM (inactive)

---

System: SK-MEL-2
Assay: NCI tumour cell line growth inhibition, 48 h
Activity calls are given as the source filed them. Rule as the data show it: active = GI50 up to about 1.1 µM and inactive = higher.
measure: GI50

# example entries with known answers
molecule: O=c1cc2ccccc2nn1Cc1ccccc1Cl
result: > 100 µM (inactive)

molecule: CCC(CC)(CO)CNc1cc(Cl)nc(N)n1
result: > 100 µM (inactive)

molecule: O=C(O)C(Cc1ccc2c(c1)CCC2)(Cc1ccc2c(c1)CCC2)C(=O)O
result: > 100 µM (inactive)

Hello, I would appreciate it if you could give GI50 for each entry below.
1. Nc1ccccc1.O=P(O)(O)c1ccccc1
2. Nc1nc(NCC2(CO)CCC2)cc(=O)[nH]1
3. O=S(=O)(Nc1ccc2ccc3cccc4ccc1c2c34)c1ccccc1
4. O=C[C@@H](CO)O[C@H](C=O)c1c[nH]c(=O)[nH]c1=O
5. Nc1ccn(C2C=C(CO)C(O)C2O)c(=O)c1 (stereo unspecified)
6. O=[N+]([O-])c1ccc(C(O)(C#CCN2CCCC2)c2ccccc2)cc1 (stereo unspecified)
7. COc1ccc(/N=C2\S/C(=N\C(=N\c3ccccc3)SCc3ccccc3)N(c3ccccc3)\C2=N/c2ccc(OC)cc2)cc1

Output:
> 100 µM (inactive)
> 100 µM (inactive)
70.5 µM (inactive)
100 µM (inactive)
> 625 µM (inactive)
24.5 µM (inactive)
> 100 µM (inactive)

Task: What value of GI50 on SK-MEL-2 does `CN1CCN(Cc2ccc(C(=S)Nc3ccccc3)s2)CC1` have?
Output: 41.8 µM (inactive)

---

Test system: SNB-19
Experiment: NCI tumour cell line growth inhibition, 48 h
The source made the active and inactive calls. No stated cut-off is given here; in the data, active = GI50 up to about 1.1 µM and inactive = higher.
measure: GI50

compound: C=C1C(=O)O[C@H]2C[C@@]3(COC(C)=O)C=COC=C(COC(=O)C(C)C)C3CC12 (some centres undefined)
result: > 100 µM (inactive)
--
compound: CC(=O)OCC(=O)[C@@]1(O)CC[C@H]2[C@@H]3CCC4=CC(=O)[C@H](C)C[C@]4(C)[C@H]3[C@@H](O)C[C@@]21C
result: > 100 µM (inactive)
--
compound: CC#Cc1cc2c(cc1O)CC[C@@H]1[C@@H]2CC[C@]2(C)[C@@H](O)CC[C@@H]12
result: 2.4 µM (inactive)

Task: Entry `Cc1ccc(C)c(COCCOCn2c(=O)[nH]c(=O)c3cc(Br)ccc32)c1` has what GI50?
Output: > 100 µM (inactive)

---

Tested on: HL-60
Test: NCI tumour cell line growth inhibition, 48 h
Activity calls are given as the source filed them. Rule as the data show it: active = GI50 up to about 1.1 µM and inactive = higher.
Task for the reader: assign each of the following compounds its reported GI50.

Hello, I would appreciate it if you could give GI50 for each entry below.
1. O=C1/C(=C/c2ccc(Br)s2)NC(=S)N1CN1CCCCC1
2. O=[N+]([O-])c1ccc(C(O)(C#CCN2CCCC2)c2ccccc2)cc1 (stereo not given)
3. CC#N.O[C@@H]1CCCC[C@@H]1O.O[C@@H]1CCCC[C@@H]1O.[TeH2]
4. COC(=O)c1c(C(=O)OC)c2ccccn2c1-c1cc(OC)c(Br)c(=O)o1
5. CN(C)CC1(Cc2ccccc2)CC/C(=C\c2ccccc2)C1=O (stereo not given)

Output:
["15.4 µM (inactive)", "18.4 µM (inactive)", "15.4 µM (inactive)", "> 100 µM (inactive)", "20.4 µM (inactive)"]

---

System: COLO 205
Experiment: NCI tumour cell line growth inhibition, 48 h
Activity calls are given as the source filed them. No stated cut-off is given here; in the data, active = GI50 up to about 1.1 µM and inactive = higher.
measure: GI50

# example entries with known answers
compound: S=C1Nc2cnc3ccccc3c2SC1c1ccccc1 (stereo not given)
testSystem: COLO 205
measure: GI50
result: > 100 µM (inactive)

compound: O=c1oc2ccccc2cc1-c1cn2ccccc2n1
testSystem: COLO 205
measure: GI50
result: 30.1 µM (inactive)

compound: Cc1cc(-c2no[n+]([O-])c2-c2cc(C)sc2S(C)(=O)=O)c(S(C)(=O)=O)s1
testSystem: COLO 205
measure: GI50
result: > 100 µM (inactive)

Hello, I would appreciate it if you could give GI50 for each entry below.
1. C=C(C)C1CC2=C(C(=O)OC)C=C(O2)C(C(=C)C)[C@@H]2OC(=O)/C(=C\C1O)[C@H]2N(C)C (stereo not given in full)
2. O=C(O)c1c2c(cc3c1CC(Cc1ccccc1)C3=O)CCC2 (stereo not given)

Output:
["9.4 µM (inactive)", "> 100 µM (inactive)"]

---

Test system: EKVX
Test: NCI tumour cell line growth inhibition, 48 h
The source made the active and inactive calls. Cut-off read from the data, not from the text of the source: active = GI50 up to about 1.1 µM and inactive = higher.
measure: GI50

Hello, I would appreciate it if you could give GI50 for each entry below.
1. CS/C(=C(\S)c1ccccc1)c1ccccc1
2. COC(=O)[C@H](Cc1ccccc1)NC(=O)/C(=C/C(C)C)NC(=O)[C@H](CCSC)NC=O
3. CN(C)CCNS(=O)(=O)c1ccc(N)cc1
4. O=c1c2ccc(Br)cc2nc(-c2ccccc2)n1NC1OC(CO)C(O)C(O)C1O (stereo unspecified)
5. NC(=O)NCCCC(NC(=O)OCCCCCCn1ccc(=O)[nH]c1=O)C(=O)O (stereo unspecified)
6. O=c1cc[nH]c2c1ccc1ncccc12
7. COc1ccccc1/N=N/C(=N/NC(=O)c1ccc(C)cc1)c1ccc(N(CCC#N)CCC#N)cc1OC
8. CC(=O)OC12C3C4C1C1C2C3C41OC(C)=O (stereo unspecified)

Output:
["> 100 µM (inactive)", "> 100 µM (inactive)", "> 100 µM (inactive)", "> 100 µM (inactive)", "> 100 µM (inactive)", "> 100 µM (inactive)", "26.4 µM (inactive)", "> 100 µM (inactive)"]

Hello, I would appreciate it if you could give GI50 for each entry below.
1. CSc1nc(C)c(CCOC(C)=O)c(Cl)n1
2. COC1=CC(=O)c2c(O)ccc(O)c2C1=O

Output:
> 100 µM (inactive)
20.2 µM (inactive)

Task: What value of GI50 on EKVX does `N=C(N)NS(=O)(=O)c1ccc(NC(=O)c2cccc3c(NNc4ccc(S(N)(=O)=O)cc4)c4ccccc4nc23)cc1` have?
Output: 47.4 µM (inactive)

---

Test system: M14
Experiment: NCI tumour cell line growth inhibition, 48 h
Active and inactive are the calls of the source. Rule as the data show it: active = GI50 up to about 1.1 µM and inactive = higher.
measure: GI50

# example entries with known answers
compound: O=S(=O)(Nc1ccc2ccc3cccc4ccc1c2c34)c1ccccc1
result: > 100 µM (inactive)
--
compound: CC(C)(O)/C1=C/C=C/CCCCCCCCCC1
result: > 100 µM (inactive)
--
compound: O=C1c2cc3c(cc2CC12Cc1ccccc1C2)CCC3
result: 23.2 µM (inactive)

Hello, I would appreciate it if you could give GI50 for each entry below.
1. NC(=S)N/N=C\c1ccc(OCc2cccc(COc3ccc(/C=N/NC(N)=S)cc3)n2)cc1
2. O=C1COCCN1C(=O)c1ccccc1Cl

Output:
43.4 µM (inactive)
> 100 µM (inactive)

---

System: M19-MEL
Assay: NCI tumour cell line growth inhibition, 48 h
Calls of active or inactive are those of the source. No stated cut-off is given here; in the data, active = GI50 up to about 1.1 µM and inactive = higher. Where a SMILES comes first, the peptide text is derived from it. [ ]: non-standard residue; d: D form. Phe(4-Cl) = N[CH](Cc1ccc(Cl)cc1)C(=O)O
Task for the reader: assign each of the following compounds its reported GI50.

# example entries with known answers
compound: Cc1ccc2c(c1)C(c1cccc3ccccc13)OC2=O (centres undefined)
testSystem: M19-MEL
GI50: > 100 µM (inactive)

compound: Cn1cc2c(n1)c(N/N=C/c1ccccc1)nn1nnnc21
testSystem: M19-MEL
GI50: > 100 µM (inactive)

Hello, I would appreciate it if you could give GI50 for each entry below.
1. N=C(N)N/N=C(/c1nc2ccc([N+](=O)[O-])cc2[nH]c1=O)C(O)c1ccc([N+](=O)[O-])cc1 (centres undefined)
2. CN(C)CC1CCC(=C2CCCC2)C1=O (centres undefined)
3. CS/C(=C(\S)c1ccccc1)c1ccccc1
4. CC(O)C(NC(=O)C(Cc1ccccc1)NC(=O)C(NC(=O)C(CCCCN)NC(=O)C(Cc1c[nH]c2ccccc12)NC(=O)C(Cc1ccc(O)cc1)NC(=O)C(Cc1ccc(Cl)cc1)NC(=O)C(N)Cc1ccccc1)C(C)O)C(N)=O (centres undefined) (H-F[Phe(4-Cl)]YWKTFT-NH2; configuration not given here)
5. CCCCCC1C2C(=O)NC(=O)C1C(=O)NC2=O (centres undefined)

Output:
> 100 µM (inactive)
16.8 µM (inactive)
> 100 µM (inactive)
21.5 µM (inactive)
> 100 µM (inactive)

Hello, I would appreciate it if you could give GI50 for each entry below.
1. CC(=O)C(CN(C)C)C(c1ccccc1)c1c(O)c2ccccc2oc1=O (centres undefined)
2. COC(=O)c1ccc(/N=N/N(C)COc2ccc(Br)cc2)cc1

Output:
1. > 100 µM (inactive)
2. > 100 µM (inactive)
